# Assay Notes: Cell viability (MTT) run in parallel with the HaCaT-based SRD5A1 inhibitory assay
# Parameters: species or system human
# Study Conditions: human, HaCaT cells, compound 5 µM, HaCaT, 24 h; read-out: Viability of treated cells
Endpoint Label: viability at 24 h, 5 µM

| Compound | Endpoint Label | Observed Measurement |
| --- | --- | --- |
| O=C(C=Cc1ccc(O)c(O)c1)Nc1cc(C(F)(F)F)cc(C(F)(F)F)c1 [Compound 4] | viability at 24 h, 5 µM | < 80% |

###

# Assay Notes: Cell viability (MTT) run in parallel with the HaCaT-based SRD5A1 inhibitory assay
# Set-up: species or system human
# Study Conditions: human, HaCaT cells, compound 1.0 µM, HaCaT, 24 h; read-out: % Cell viability ± SD

| Structure | viability at 24 h, 1 µM / % |
| --- | --- |
| O=C(C=Cc1ccc(O)c(O)c1)Nc1cc(C(F)(F)F)cc(C(F)(F)F)c1 | 88 |
